// provenance: ChEMBL document CHEMBL1136766

# reported pIC50; entries follow
Species: Homo sapiens
assay_comment: Inhibition of [3H]anandamide transport(ANT) in human lymphoma U937 cell
Assay type: functional
protocol_conditions: U-937
API: returns pIC50 as number; meaning -log10 of concentration in mol/L.

>  <compound>
CCCCC/C=C\C/C=C\C/C=C\C/C=C\CCCC(=O)OCCc1ccsc1

>  <meas_value>
4.59

$$$$
>  <compound>
CCCCC/C=C\C/C=C\C/C=C\C/C=C\CCCC(=O)NC(C)Cc1ccsc1 (stereo not drawn)

>  <meas_value>
4.68

$$$$
>  <compound>
CCCCC/C=C\C/C=C\C/C=C\C/C=C\CCCC(=O)NCCc1ccco1

>  <meas_value>
4.89

$$$$
>  <compound>
CCCCC/C=C\C/C=C\C/C=C\C/C=C\CCCC(=O)NCCc1ccoc1

>  <meas_value>
5.48

$$$$
>  <compound>
CCCCC/C=C\C/C=C\C/C=C\C/C=C\CCCC(=O)NCc1ccsc1

>  <meas_value>
5.30

$$$$

Exam item: State, in one line, measured pIC50 of CCCCC/C=C\C/C=C\C/C=C\C/C=C\CCCC(=O)N(Cc1cccs1)Cc1cccs1
Marked response: 4.80

Exam item: State, in one line, measured pIC50 of CCCCC/C=C\C/C=C\C/C=C\C/C=C\CCCC(=O)SCc1ccco1
Marked response: 5.05

Exam item: State, in one line, measured pIC50 of CCCCC/C=C\C/C=C\C/C=C\C/C=C\CCCC(=O)NCCc1ccsc1
Marked response: 5.89

###

target_desc: Cannabinoid receptor 1 (Rattus norvegicus)
Sequence (P20272 whole entry): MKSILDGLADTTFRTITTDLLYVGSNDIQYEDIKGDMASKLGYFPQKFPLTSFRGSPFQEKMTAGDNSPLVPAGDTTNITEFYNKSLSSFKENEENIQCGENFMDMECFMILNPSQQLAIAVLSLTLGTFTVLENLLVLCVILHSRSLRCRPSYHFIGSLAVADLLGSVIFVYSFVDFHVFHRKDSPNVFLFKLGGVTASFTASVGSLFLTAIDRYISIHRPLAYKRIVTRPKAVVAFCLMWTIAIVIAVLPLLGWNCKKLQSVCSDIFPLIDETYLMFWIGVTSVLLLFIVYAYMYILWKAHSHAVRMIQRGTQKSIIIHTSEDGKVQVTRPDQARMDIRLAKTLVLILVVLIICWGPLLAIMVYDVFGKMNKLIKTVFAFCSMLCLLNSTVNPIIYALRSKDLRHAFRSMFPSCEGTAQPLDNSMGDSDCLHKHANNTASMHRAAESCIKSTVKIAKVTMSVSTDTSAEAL
measurement_label: Ki

Some solved cases for reference:
>  <compound>
CCCCC/C=C\C/C=C\C/C=C\C/C=C\CCCC(=O)NCc1ccoc1

>  <target_desc>
Cannabinoid receptor 1 (Rattus norvegicus)

>  <meas_value>
4.7 µM

$$$$
>  <compound>
CCCCC/C=C\C/C=C\C/C=C\C/C=C\CCCC(=O)OCCc1cccs1

>  <target_desc>
Cannabinoid receptor 1 (Rattus norvegicus)

>  <meas_value>
> 1 µM

$$$$
>  <compound>
CCCCC/C=C\C/C=C\C/C=C\C/C=C\CCCC(=O)NCCc1cccs1

>  <target_desc>
Cannabinoid receptor 1 (Rattus norvegicus)

>  <meas_value>
3 µM

$$$$
>  <compound>
CCCCC/C=C\C/C=C\C/C=C\C/C=C\CCCC(=O)NC(C)c1ccco1 (stereo not given)

>  <target_desc>
Cannabinoid receptor 1 (Rattus norvegicus)

>  <meas_value>
> 5 µM

$$$$
>  <compound>
CCCCC/C=C\C/C=C\C/C=C\C/C=C\CCCC(=O)OC(C)c1ccco1 (stereo not given)

>  <target_desc>
Cannabinoid receptor 1 (Rattus norvegicus)

>  <meas_value>
> 1 µM

$$$$

Exam item: State, in one line, measured Ki of CCCCC/C=C\C/C=C\C/C=C\C/C=C\CCCC(=O)SCc1ccco1
Marked response: > 5 µM

Exam item: State, in one line, measured Ki of CCCCC/C=C\C/C=C\C/C=C\C/C=C\CCCC(=O)NCc1ccsc1
Marked response: > 1 µM

Exam item: State, in one line, measured Ki of CCCCC/C=C\C/C=C\C/C=C\C/C=C\CCCC(=O)N(Cc1cccs1)Cc1cccs1
Marked response: > 1 µM

Exam item: State, in one line, measured Ki of CCCCC/C=C\C/C=C\C/C=C\C/C=C\CCCC(=O)NCCc1ccco1
Marked response: > 5 µM

Exam item: State, in one line, measured Ki of CCCCC/C=C\C/C=C\C/C=C\C/C=C\CCCCNCc1ccoc1
Marked response: > 1 µM

###

Species on record: Homo sapiens
assay_comment: Maximum Inhibition of anandamide transport(ANT) was determined against human lymphoma U937 cell at a dose of 50 uM
Assay type: functional, U-937
measurement_label: Max inhibition

Some solved cases for reference:
>  <molecule>
CCCCC/C=C\C/C=C\C/C=C\C/C=C\CCCC(=O)NCCc1ccoc1

>  <Max inhibition>
>85%

$$$$
>  <molecule>
CCCCC/C=C\C/C=C\C/C=C\C/C=C\CCCC(=O)NCCc1ccco1

>  <Max inhibition>
>85%

$$$$
>  <molecule>
CCCCC/C=C\C/C=C\C/C=C\C/C=C\CCCC(=O)OCCc1cccs1

>  <Max inhibition>
>85%

$$$$

Exam item: State, in one line, measured Max inhibition of CCCCC/C=C\C/C=C\C/C=C\C/C=C\CCCC(=O)NCc1ccsc1
Marked response: >85%

Exam item: State, in one line, measured Max inhibition of CCCCC/C=C\C/C=C\C/C=C\C/C=C\CCCC(=O)SCc1ccco1
Marked response: >85%

Exam item: State, in one line, measured Max inhibition of CCCCC/C=C\C/C=C\C/C=C\C/C=C\CCCC(=O)N(C)Cc1ccoc1
Marked response: >85%

Exam item: State, in one line, measured Max inhibition of CCCCC/C=C\C/C=C\C/C=C\C/C=C\CCCC(=O)O[C@H](C)c1ccco1
Marked response: 37%

Exam item: State, in one line, measured Max inhibition of CCCCC/C=C\C/C=C\C/C=C\C/C=C\CCCC(=O)NCC1CCCO1 (stereo unspecified)
Marked response: >85%

Exam item: State, in one line, measured Max inhibition of CCCCC/C=C\C/C=C\C/C=C\C/C=C\CCCC(=O)OCC1CCCO1 (stereo unspecified)
Marked response: >85%

Exam item: State, in one line, measured Max inhibition of CCCCC/C=C\C/C=C\C/C=C\C/C=C\CCCC(=O)O[C@@H](C)c1ccco1
Marked response: 55%

###

target_desc: Transient receptor potential cation channel subfamily V member 1 (Rattus norvegicus, UniProt O35433)
Sequence (O35433 whole entry): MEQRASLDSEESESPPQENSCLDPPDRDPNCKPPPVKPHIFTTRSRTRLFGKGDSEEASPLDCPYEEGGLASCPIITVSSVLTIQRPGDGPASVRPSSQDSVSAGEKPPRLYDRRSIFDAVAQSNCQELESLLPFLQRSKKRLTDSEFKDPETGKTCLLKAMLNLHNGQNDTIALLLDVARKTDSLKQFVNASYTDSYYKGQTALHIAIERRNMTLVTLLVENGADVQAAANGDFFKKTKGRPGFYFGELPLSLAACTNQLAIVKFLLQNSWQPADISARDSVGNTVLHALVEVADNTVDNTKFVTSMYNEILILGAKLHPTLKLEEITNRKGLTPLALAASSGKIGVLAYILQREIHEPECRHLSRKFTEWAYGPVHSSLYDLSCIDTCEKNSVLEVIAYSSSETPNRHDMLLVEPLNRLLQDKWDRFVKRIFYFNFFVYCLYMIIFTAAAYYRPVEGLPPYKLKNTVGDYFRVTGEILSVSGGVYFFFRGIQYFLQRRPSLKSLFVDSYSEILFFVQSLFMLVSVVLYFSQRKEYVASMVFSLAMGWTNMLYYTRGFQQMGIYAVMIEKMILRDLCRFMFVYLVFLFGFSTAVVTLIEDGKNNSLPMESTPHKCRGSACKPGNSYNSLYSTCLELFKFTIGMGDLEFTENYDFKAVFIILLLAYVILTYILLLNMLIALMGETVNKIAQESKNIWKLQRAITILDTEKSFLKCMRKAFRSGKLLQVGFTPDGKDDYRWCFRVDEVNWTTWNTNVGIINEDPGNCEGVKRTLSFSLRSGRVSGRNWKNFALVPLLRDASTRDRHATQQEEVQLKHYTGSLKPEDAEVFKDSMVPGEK
# reported Ki; entries follow

>  <compound>
CCCCC/C=C\C/C=C\C/C=C\C/C=C\CCCC(=O)NCCc1ccoc1

>  <meas_value>
> 5 µM

$$$$
>  <compound>
CCCCC/C=C\C/C=C\C/C=C\C/C=C\CCCC(=O)O[C@@H](C)c1ccco1

>  <meas_value>
> 5 µM

$$$$
>  <compound>
CCCCC/C=C\C/C=C\C/C=C\C/C=C\CCCC(=O)NC(C)Cc1cccs1 (stereo unspecified)

>  <meas_value>
< 5 µM

$$$$
>  <compound>
CCCCC/C=C\C/C=C\C/C=C\C/C=C\CCCC(=O)SCc1ccco1

>  <meas_value>
> 5 µM

$$$$

Exam item: State, in one line, measured Ki of CCCCC/C=C\C/C=C\C/C=C\C/C=C\CCCC(=O)OCCc1ccsc1
Marked response: > 5 µM

Exam item: State, in one line, measured Ki of CCCCC/C=C\C/C=C\C/C=C\C/C=C\CCCC(=O)N(Cc1cccs1)Cc1cccs1
Marked response: > 5 µM

###

Species on record: Homo sapiens
assay_comment: Inhibition of [3H]anandamide transport(ANT) in human lymphoma U937 cell
Type: functional
protocol_conditions: U-937
The threshold is 20 µM. Values of IC50 beneath it are tagged 1; values meeting or exceeding it are tagged -1.

Recorded results for 4 compounds are shown here.
>  <compound>
CCCCC/C=C\C/C=C\C/C=C\C/C=C\CCCC(=O)NCCc1cccs1

>  <classification>
1

$$$$
>  <compound>
CCCCC/C=C\C/C=C\C/C=C\C/C=C\CCCC(=O)NC(C)Cc1cccs1 (stereo not given)

>  <classification>
-1

$$$$
>  <compound>
CCCCC/C=C\C/C=C\C/C=C\C/C=C\CCCC(=O)OCCc1cccs1

>  <classification>
1

$$$$
>  <compound>
CCCCC/C=C\C/C=C\C/C=C\C/C=C\CCCC(=O)NC(C)c1ccco1 (stereo not given)

>  <classification>
-1

$$$$

Now look at this entry.
Exam item: hey, is IC50 for CCCCC/C=C\C/C=C\C/C=C\C/C=C\CCCC(=O)N(C)Cc1ccoc1 lower than 20 µM or not?
Marked response: -1

###

target_desc: Cannabinoid receptor 2 (Homo sapiens, UniProt P34972)
Sequence (P34972 whole entry): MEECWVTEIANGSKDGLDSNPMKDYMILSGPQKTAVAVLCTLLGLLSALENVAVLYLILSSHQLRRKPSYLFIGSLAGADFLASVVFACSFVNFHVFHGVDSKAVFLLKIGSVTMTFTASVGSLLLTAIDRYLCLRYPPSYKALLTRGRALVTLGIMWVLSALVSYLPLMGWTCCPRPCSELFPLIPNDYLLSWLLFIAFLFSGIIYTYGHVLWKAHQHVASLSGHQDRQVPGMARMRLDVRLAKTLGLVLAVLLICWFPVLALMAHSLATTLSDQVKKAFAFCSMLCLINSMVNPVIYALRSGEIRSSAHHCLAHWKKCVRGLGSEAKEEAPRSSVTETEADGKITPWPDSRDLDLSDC
assay_comment: Binding affinity against G protein coupled human Cannabinoid receptor 2 using [3H]CP-55940 in HEK293 EBNA transfected cells
pKi: −log10 of the molar value.
# reported pKi; entries follow

Exam item: State, in one line, measured pKi of CCCCC/C=C\C/C=C\C/C=C\C/C=C\CCCC(=O)SCc1ccco1
Marked response: < 5.30

Exam item: State, in one line, measured pKi of CCCCC/C=C\C/C=C\C/C=C\C/C=C\CCCC(=O)NCCc1ccco1
Marked response: < 6.00

Exam item: State, in one line, measured pKi of CCCCC/C=C\C/C=C\C/C=C\C/C=C\CCCC(=O)NCc1ccsc1
Marked response: < 6.00

Exam item: State, in one line, measured pKi of CCCCC/C=C\C/C=C\C/C=C\C/C=C\CCCC(=O)NCCc1ccoc1
Marked response: 6.40

Exam item: State, in one line, measured pKi of CCCCC/C=C\C/C=C\C/C=C\C/C=C\CCCCNCc1ccoc1
Marked response: < 6.00
